# Experimental system: FhCB2 (Fasciola hepatica, UniProt A5X493)
# Sequence (A5X493 entry or part of it): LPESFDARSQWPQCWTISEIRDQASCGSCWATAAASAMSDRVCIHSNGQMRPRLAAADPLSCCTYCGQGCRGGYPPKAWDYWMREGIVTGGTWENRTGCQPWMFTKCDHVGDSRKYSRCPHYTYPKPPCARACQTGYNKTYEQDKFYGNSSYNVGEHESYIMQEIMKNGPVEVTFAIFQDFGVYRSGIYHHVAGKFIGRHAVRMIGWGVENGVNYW
# Test name: Inhibition of recombinant FhCB2, fluorogenic substrate assay (Z-Val-Ile-Arg-AMC)
# Conditions used: recombinant FhCB2 140 nM, 30 min pre-incubation, substrate Z-Val-Ile-Arg-AMC at KM, optimum pH; ± SEM; read-out: inhibition constant Ki
Where a SMILES comes first, the peptide text is derived from it. The star is where a group is joined. Cbz = O=C(OCc1ccccc1)*
Listing of recorded Ki by entry.
Measurement type: Ki (µM)

INSERT INTO assay_data (molecule, experimental_system, relation_operator, measured_result) VALUES
  ('CCCNC(=O)[C@H]1O[C@@H]1C(=O)N[C@H](C(=O)N1CCC[C@H]1C(=O)O)[C@@H](C)CC', 'FhCB2 (Fasciola hepatica, UniProt A5X493)', '=', 5.93),
  ('O=CC(Cc1ccc(O)cc1)NC(=O)C(Cc1ccccc1)NC(=O)OCc1ccccc1 (stereo not drawn) [LII] (Cbz-Phe-Tyr-aldehyde; configuration not given here)', 'FhCB2 (Fasciola hepatica, UniProt A5X493)', '=', 1.84),
  ('CC(C)C[C@H](NC(=O)OCc1ccccc1)C(=O)NNC(=O)NNC(=O)[C@H](CC(C)C)NC(=O)C(Cc1ccccc1)NC(=O)OC(C)(C)C (stereo partly drawn)', 'FhCB2 (Fasciola hepatica, UniProt A5X493)', '>', 1);
